Target: Reverse transcriptase (Human immunodeficiency virus 1)
Assay: Inhibition of HIV1 LAI reverse transcriptase wild type in presence of 5 mM ATP by heteropolymeric DNA polymerase assay
property.name: IC50 (µM)

(A) Nc1nc2c(c(=O)[nH]1)NCN2[C@H]1C=C[C@@H](COP(=O)(O)OP(=O)(O)OP(=O)(O)O)C1 [Carbovir-Triphosphate]
(B) C[C@@H](Cn1cnc2c(N)ncnc21)OCP(=O)(O)OP(=O)(O)OP(=O)(O)O [Tenofovir diphospahte]
Query: Of the two listed items, which has the higher IC50? First: A Second: B State your choice using its label.
Reply: B

----------
Target: Reverse transcriptase (Human immunodeficiency virus 1, UniProt Q9WKE8)
Assay: Inhibition of HIV1 pNL4-3 reverse transcriptase wild type pNL4-3 by heteropolymeric DNA polymerase assay
property.name: IC50 (µM)

The compound Nc1nc2c(c(=O)[nH]1)NCN2[C@H]1C=C[C@@H](COP(=O)(O)OP(=O)(O)OP(=O)(O)O)C1 [Carbovir-Triphosphate] showed IC50 equal to 1.2

The compound C[C@@H](Cn1cnc2c(N)ncnc21)OCP(=O)(O)OP(=O)(O)OP(=O)(O)O showed IC50 equal to 1.2
